tested_target: SARS-CoV-2 spike extracellular domain (SARS-CoV-2, UniProt P0DTC2 14-1213)
method_notes: ELISA
measured_property: pKd
Scale: pKd equals -log10([C]), with [C] in mol/L.

pKd lookup needed for FB 9D (antibody, V domains shown) VH: QVQLVESGAEVKKPGESLKISCQGSGYRFNSYWIAWVRQMPGKGLEWMGSIFPTDSDVRYNPSFQGQVTISADKSISFAYLQWSSLKASDTAIYYCARHWASMVRGVIRASHYYGMDVWGQGTTVTVSS VL: QPVLTQPPSASGSPGQSVTISCSGASSDIGKYNYVSWYQQLPGKAPKLLIYEVTKRPSGVPDRFSGSKSGNTASLTVSGLQADDEADYYCSSYAFGGSDTRVFGGGTKLTVL , thanks.
9.54

pKd lookup needed for EZ 7A (antibody, V domains shown) VH: EVQLVESGAEVKKPGESLKISCKGSGYSFTSYWIGWVRQMPGKGLEWMGIIYPGDSDTRYSPSFQGQVTISADKSISTAYLQWSSLKASDTAMYYCARGWVYRGFPYYGMDVWGQGTMVTVSS VL: QSALTQPRSVSGSPGQSVTISCTGTSSDVGGYNYVSWYQQHPGKAPKLMIYDVSKRPSGVPDRFSGSKSGNTASLTISGLQAEDEADYYCCSYAGSYTLVFGGGTKLTVL , thanks.
8.97

pKd lookup needed for FB 1E (antibody, V domains shown) VH: EVQLVESGAEVKKPGESLKISCQGSGYRFNSYWIAWVRQMPGKGLEWMGSIFPTDSDIRYNPSFQGQVTISADKSISIAYLQWSSLKASDTAIYYCARHWASMVRGVIRASHYYGMDVWGQGTTVTVSS VL: QSVLTQPPSASGSPGQSVTISCSGASSDIGDYNYVSWYQQLPGKAPKLLIYEVTKRPSGVPDRFSGSKSGNTASLTVSGLQADDEADYYCSSYAFGGSDIRVFGGGTKLAVL , thanks.
9.39
